# assayInfo: Plasma pharmacokinetics in phase I clinical trial NCT04836195 (oral daily dose)
# Type: in vivo, human
# experimentalParameters: human, plasma, oral, 140 mg, plasma; 140 mg; Cycle 1 D15; read-out: Cmax (mean, SD)
measuredMetric: Cmax (ng/mL)
Numbers only here, please. The scale is ng/mL.

Query (compound): Cc1c(N[S+](=O)(O)c2c(Cl)cc(-c3ccnc(N4CCNCC4)c3)cc2Cl)c(CC(C)C)nn1C [PCLX-001] ; field requested: Cmax 1340

====

# assayInfo: Plasma, brain and CSF pharmacokinetics and brain tissue accumulation in mice (LC-MS/MS)
# Assay type: in vivo, male C57BL/6 mice
# experimentalParameters: male, C57BL/6, mouse, plasma, oral, 5 mg/kg, 5 mg/kg oral; time point 0.25 h; read-out: Mean Plasma Conc.
measuredMetric: concentration at 0.25 h (µM)
Numbers only here, please. The scale is µM.

Query (compound): Cc1c(N[S+](=O)(O)c2c(Cl)cc(-c3ccnc(N4CCNCC4)c3)cc2Cl)c(CC(C)C)nn1C [PCLX-001] ; field requested: concentration at 0.25 h 8.31

====

# assayInfo: Plasma pharmacokinetics in phase I clinical trial NCT04836195 (oral daily dose)
# Type: in vivo, human
# experimentalParameters: human, plasma, oral, 100 mg, plasma; 100 mg; Cycle 1 D15; read-out: t½ (mean, SD) (converted)
measuredMetric: half-life (h)
Numbers only here, please. The scale is h.

Query (molecule): `Cc1c(N[S+](=O)(O)c2c(Cl)cc(-c3ccnc(N4CCNCC4)c3)cc2Cl)c(CC(C)C)nn1C` ; field requested: half-life 12

====

# assayInfo: Plasma, brain and CSF pharmacokinetics and brain tissue accumulation in mice (LC-MS/MS)
# Assay type: in vivo, male C57BL/6 mice
# experimentalParameters: male, C57BL/6, mouse, plasma, oral, 5 mg/kg, 5 mg/kg oral; time point 2.00 h; individual animals; read-out: Plasma Conc.
measuredMetric: concentration at 2 h (µM)
Numbers only here, please. The scale is µM.

Query (compound): `Cc1c(N[S+](=O)(O)c2c(Cl)cc(-c3ccnc(N4CCNCC4)c3)cc2Cl)c(CC(C)C)nn1C` ; field requested: concentration at 2 h 9.73

====

# assayInfo: Plasma, brain and CSF pharmacokinetics and brain tissue accumulation in mice (LC-MS/MS)
# Type: in vivo, male C57BL/6 mice
# experimentalParameters: male, C57BL/6, mouse, brain/CSF; 5 mg/kg oral; time point 8.00 h; read-out: Brain/CSF-Kp
measuredMetric: Kp at 8 h
Answer with the value's number alone.

Query (compound): Cc1c(N[S+](=O)(O)c2c(Cl)cc(-c3ccnc(N4CCNCC4)c3)cc2Cl)c(CC(C)C)nn1C [PCLX-001] ; field requested: Kp at 8 h 8.35

====

# assayInfo: Plasma pharmacokinetics in phase I clinical trial NCT04836195 (oral daily dose)
# Assay type: in vivo, human
# experimentalParameters: human, plasma, po, plasma; single oral 20 mg to 210 mg; C1D1; read-out: median Tmax values across the dose cohorts
measuredMetric: Tmax

Query (compound): Cc1c(N[S+](=O)(O)c2c(Cl)cc(-c3ccnc(N4CCNCC4)c3)cc2Cl)c(CC(C)C)nn1C [PCLX-001] ; field requested: Tmax 1 to 4 h

====

# assayInfo: Plasma, brain and CSF pharmacokinetics and brain tissue accumulation in mice (LC-MS/MS)
# Type: in vivo, male C57BL/6 mice
# experimentalParameters: male, C57BL/6, mouse; oral gavage 5 mg/kg; Plasma
measuredMetric: AUC(0-t) (µM·h)
Numbers only here, please. The scale is µM·h.

Query (compound): `Cc1c(N[S+](=O)(O)c2c(Cl)cc(-c3ccnc(N4CCNCC4)c3)cc2Cl)c(CC(C)C)nn1C` ; field requested: AUC(0-t) 108
